- System: M14
- RUN DESCRIPTION: NCI tumour cell line growth inhibition, 48 h
Activity calls are given as the source filed them. No stated cut-off is given here; in the data, active = GI50 up to about 1.1 µM and inactive = higher.
Log the outcome using a class from active, inactive

[[record]]
molecule = "Cc1cccc(/N=N/c2ccc(O)c(CN(C)C)c2)c1"
group = "inactive"

[[record]]
molecule = "OC1C2CCCCN2C[C@@H](O)[C@H]1O (some centres undefined)"
group = "inactive"

[[record]]
molecule = "C1CCC(CC2CCC(NC3=NCCO3)CC2)CC1 (centres undefined)"
group = "inactive"

[[record]]
molecule = "CCC1CCC2c3c([nH]c4ccc(C)cc34)C3C(=O)N(N(C)C)C(=O)C3C2C1 (centres undefined)"
group = "inactive"

[[record]]
molecule = "CN(C)CCCNc1ccc2nnn3c4ccc([N+](=O)[O-])cc4c(=O)c1c23"
group = "inactive"


# outcome recorded in this test, key = NC1C2(CCCCCC2)NC(=O)C12CCCCCC2 (centres undefined)
inactive

# outcome recorded in this test, key = Cc1cc(Cc2cc(C)c(NC(=O)C(=O)C3C(=O)NC(=S)NC3=O)c(C(C)C)c2)cc(C(C)C)c1NC(=O)C(=O)C1C(=O)NC(=S)NC1=O
inactive

# outcome recorded in this test, key = CCOC(=O)n1c2ccccc2c2c(O)c(OC)c3c(c21)C(=O)NC3=O
inactive

# outcome recorded in this test, key = C/C(=N\Nc1nc2cc(C)ccc2s1)c1ccccn1
active
